test: yeast display, Sf9 membrane polyspecificity reagent, FACS + sequencing; frameworks hold sequencing errors
Assay endpoint: polyreactivity (PSR sort gate)

Here are 5 sequences together with their reported answers.
[[record]]
record_sequence = "QVQLVESGGGLVQAGGSLRLSCAASGFNFVHYAMGWYRPAPGKDRELVAAISKRGGTTYYADSVKGRFTISRDNAKNTVYLQMNSLKPEDSAVYYCNADVTNWEDDYYYWGQGTQVNVSS"
value_observed = "high polyreactivity"

[[record]]
record_sequence = "QVQLVESGGVLVQAGGIIRLSCAASGFIFVRYAMGWYRQAPGTERELVASIRSVGRTNYADSVKGRFTISRDNAKNTVYLQMNSLKPEDTAVYYCAAGYGSRSRPRGGYWGQGTQVTVSS"
value_observed = "high polyreactivity"

[[record]]
record_sequence = "QVQLVESGGGLVQAGGSLRLSCAASGFIFSRYGMGWYRQAPGKERELVAAISRSGGSTYYADSVKGRFTISRDNAKNTVYLQMNSLKPEDTAVYYCATAYSWRNADRFAYSYDYWGQGTQVTVSS"
value_observed = "low polyreactivity"

[[record]]
record_sequence = "QVQLVESGGGLVQAGGSLRLSCAASGYTFYSNAMGSYRQAPGKERELVASIRSRGRSTYYADSVKGRFTISRDNAKNTVYFQMNSLKPEDTAVYYCAALPNTPAVYAYDYWGQGTQVTVSS"
value_observed = "low polyreactivity"

[[record]]
record_sequence = "QVQLVESGGGLVQAGGSLRLSCAASGRIFYTNAMGWYRQAPGKERELVAGIRFNGGSTYYADSVKGRFTISRDNAKNTVYLQMNSLKPEDTAVYYCAVRTYYSGYDSWGQGTQVTVSS"
value_observed = "low polyreactivity"


Return reported polyreactivity (PSR sort gate); argument: QVQLVESGGGLVQAGGSLRLSCAASGSIFSPNAMGWYRQATGKERELVAAISWTGVSTHYADSVKGRFTISRDNAKNTDYLHMNSLKPEDTAVYYCKYRFYRYPKYGYWGQGTQVTVSS high polyreactivity

Please answer likewise for QVQLVESGGGLVQAGGSLRLTCAASGYTFGHYAMGWYRQAPGKERELVAVITSGGSTNYADSVKGRFTISRDNAKNTVYLQMNSLKPEDTAVYYCAADLYFYYVWIRDYWGQGTQVTVSS low polyreactivity

Please answer likewise for QVQLGESGGGLVQAGGRLRLSCAASGYTFGYYTMGWYRQAPGKERELVASIDSGGGTNYADSVKGRFTISRDNAKNTVYLQMNSVKAEDTAVYYCAAESPLYWVDDFESGWRYYYWGQGTQVTVSS low polyreactivity

Please answer likewise for QVQLVESGGGLVQAGGSLRLSCAASGSIFGSNAMGWYRPAPGKERELVAAITNTGRTNYADSVKGRFTISRDNAKNTVYLQMNSLKPEDTAVYYCYTDGYEFTHFVGGWYQIIDYDYWGQGTQVTVSS low polyreactivity

Please answer likewise for QVQLVESGGGLVQAGGSLRLSCAASGRTFLINAMGWYRQAPGKERELVADITGRGSSTYYADSVKGRFTISRDNAKNTVYLQMNSLKPEDTAVYYCNAVLRKITYDYWGQGTQVTVSS high polyreactivity

Please answer likewise for QVPLVESGGGLVQAGGSLRLSCAASGITIRGYAMGWYRQAPGKDRELVAAINTRTSTYYADSVKGRFTISRDNAKHTVYLQMNSLKPEDTAVYYCNRDPVYYDYDYWGQGTQVTVSS low polyreactivity

Please answer likewise for QVQLVESGGGLVQAGGSLRLSCAASGSISYYNAMGWYRQAPGKERELVATITDSGGSTYYADSVKGRFTISRDNAKNTVYLQMNSLKPEDTAVYYWAVDYSEWYSIYEYWGQGTQVTVSS low polyreactivity

Please answer likewise for QVQLVESGGGLVQAGGSLRLSCAASGRTFSKNVMGWYRQAPGKEREFVARISDSGVGTYYADSVKGRFTISRDNAKNTVYLQMNSLKPEDTAVYYCDKQYGGRYGYWGQGTQVTVSS low polyreactivity

Please answer likewise for QVQLVESGGGLVQAGGSLRLSCAASGSTFGRNAMGWYRQAPGKERELVASISRRGGSTYYADSVKGRFTISRDNAKNTVYLQMNSLKPEDTAVYYCNARYYFSDYGYWGQGTQVTVSS high polyreactivity

Please answer likewise for QVQLVESGGGLVQEGGSLRLSCAASGSILYYYAMGWYRQAPGKERELVATITRRGGSTYYADSVKGRFTISRDNAKNTVYLQMNSLKPEDTAVYFCAARSRYGELYYWGQGTQVTVSS high polyreactivity

Please answer likewise for QVQLVESGGGLVQAGGSLRLSCAASGIIFASNARGWYIQAPGKERELVASINRRGSSTYYADSVKGRFTISRDNAKNTVYLQMNSLKPEDTAVYYCAARAFNSGLGYTRYDYWGQGTQVTVSS high polyreactivity

Please answer likewise for QVQLLEIGGGLVQAGGSLRQSCMASGSILGDRMSWYRQAPGKEHELVATIFDGGITYYADSMKGRFTISRDNAKNTVYLQMNSLRPEDTAVYYCGASFDGYRYHVYCGQGTQVTVSS low polyreactivity

Please answer likewise for QVQLVESGGGLVQAGGSLRLSCAASGGTFKSAYVMGWYRQAPGKERELVAAIDSTGSTNYADSVKGRFTISRDNAKNTVYLQMNSLKPEDTAVYYCNADRRELYYDPMDYWGQGTQVTVSS low polyreactivity

Please answer likewise for QVQLVESRGGLVQAGGSLRLSCAASGLIFLHNAMGWYRQAPGKERELVAAIRDGDSTNYADSVKGRFTISRDNAKNTVYLQMNSLKPEDTAVYYCAKDPTLVAYAPGRYDYWGQGTQVTVSS low polyreactivity

Please answer likewise for QVQLVESGGGLVQAGGSLRLSCAASGSIFWFNAMGWYRQAPGKERELVAAITITGGSTYYADSVKGRFTISRDNAKNTVYLQMNSLKPEDTAVYYCAAGTGSRDDYWGQGTQVTVSS high polyreactivity

Please answer likewise for QVQLVESGAGLVHAGGSLRLSCAASGRIFGINAMGWYRQAPGKERELVAAINWSGGSTYYADSVKGRFTISRDNAKNTVYLQMNSVKPEDTAVYYCAAQKYKRVGYWGQGTQVTVSS high polyreactivity
